test: Degradation of the active stereoisomer S,S at 25° C. and 65% R.H.; type: physicochemical; settings: 720 days
Listing of entries alongside the reported percentage of the active S,S stereoisomer remaining.
testReadout: percentage of the active S,S stereoisomer remaining (%)

- compound: "C[S+](CCC(N)C(=O)[O-])C[C@H]1O[C@@H](n2cnc3c(N)ncnc32)[C@H](O)[C@@H]1O.C[S+](CCC(N)C(=O)[O-])C[C@H]1O[C@@H](n2cnc3c(N)ncnc32)[C@H](O)[C@@H]1O.Cl.O=S(=O)([O-])[O-].[Mg+2] (some centres unmarked) [SAMe•0.5HCl•0.5MgSO4]"
  reportedValue: 88.2
- compound: "C[S+](CCC(N)C(=O)[O-])C[C@H]1O[C@@H](n2cnc3c(N)ncnc32)[C@H](O)[C@@H]1O.C[S+](CCC(N)C(=O)[O-])C[C@H]1O[C@@H](n2cnc3c(N)ncnc32)[C@H](O)[C@@H]1O.O=S(=O)(O)O.[Cl-].[Cl-].[Mg+2] (some centres unmarked)"
  reportedValue: 87.6
